Each recorded value in this set is attributed to patent US7205382B2.

System: human IgG-Fc
Experiment: Cellulose-immobilized 13-mer peptide variants incubated with human IgG-Fc, anti-human IgG-AP detection
Assay type: binding
Design: key: No binding of immunoglobulin for the defined peptide variant, detection negative: 0; Binding of immunoglobulin for the defined peptide variant, detection positive: +
Conditions: IgG-Fc 1 μg/ml in blocking buffer, 3 h room temperature
Experimental: Peptides consisting of 13 amino acids were synthesized by solid phase synthesis (Houghten, 1985) on a cellulose matrix with (βA)(βA) as a spacer group. The immobilized peptides were tested for their immunoglobulin binding capability by incubation with human IgG-Fc in a buffered solution and by incubation with human plasma. […]
Bridge positions count the residues as written; N and C are the ends. Ends that are not written are not given here. cellulose = not defined here; βAla = NCCC(=O)O
Consider the following substances; for each one, report its Result for incubation with human IgG-Fc (immunoglobulin binding detection).
Note: the reply should be a number with no unit written.

Kindly note the recorded Result for incubation with human IgG-Fc (immunoglobulin binding detection) for 07E: cellulose-bound 13-mer variant DCAWHLEELVWCT-(βA)(βA) (DCAWHLEELVWCT-{βAla-βAla-cellulose}; disulfide 2-12 (inferred); not fully specified (N-terminus); printed as DCAWHLEELVWCT-(βA)(βA); reading uncertain) , which is 0

The value of Result for incubation with human IgG-Fc (immunoglobulin binding detection) measured for the substance 05E: cellulose-bound 13-mer variant DCAWELGELVWCT-(βA)(βA) (disulfide 2-12 (inferred); not fully specified (N-terminus, C-terminus); printed as DCAWELGELVWCT-(βA)(βA); also: cellulose-bound) turned out to be 0

In plain terms, 11L: cellulose-bound 13-mer variant DCAWHLGELVLCT-(βA)(βA) has a documented Result for incubation with human IgG-Fc (immunoglobulin binding detection) of 0

----------
system: immunoglobulins in human plasma; assay: Cellulose-immobilized 13-mer peptide variants incubated with human plasma, anti-human IgG-AP detection; format: binding; parameters: key: No binding of immunoglobulin for the defined peptide variant, detection negative: 0; Binding of immunoglobulin for the defined peptide variant, detection positive: +; conditions: human plasma as sample, diluted 1:10,000 in blocking buffer, 3 h room temperature
Bridge positions count the residues as written; N and C are the ends. Ends that are not written are not given here. cellulose = not defined here; βAla = NCCC(=O)O
valueKind: Result for incubation with human plasma (immunoglobulin binding detection)
Number, no unit, nothing else.

Record 01H: cellulose-bound 13-mer variant HCAWHLGELVWCT-(βA)(βA) (HCAWHLGELVWCT-{βAla-βAla-cellulose}; disulfide 2-12 (inferred); reading uncertain; also: printed as HCAWHLGELVWCT-(βA)(βA)) . Reported Result for incubation with human plasma (immunoglobulin binding detection): 0

----------
test system: human IgG-Fc; test: Cellulose-immobilized 13-mer peptide variants incubated with human IgG-Fc, anti-human IgG-AP detection; format: binding; design: key: No binding of immunoglobulin for the defined peptide variant, detection negative: 0; Binding of immunoglobulin for the defined peptide variant, detection positive: +; conditions: IgG-Fc 1 μg/ml in blocking buffer, 3 h room temperature
Bridge positions count the residues as written; N and C are the ends. Ends that are not written are not given here. cellulose = not defined here; βAla = NCCC(=O)O
valueKind: Result for incubation with human IgG-Fc (immunoglobulin binding detection)
Answer field: number only, no words.

Tested system human IgG-Fc; Result for incubation with human IgG-Fc (immunoglobulin binding detection) recorded for 03N: cellulose-bound 13-mer variant DCNWHLGELVWCT-(βA)(βA) (DCNWHLGELVWCT-{βAla-βAla-cellulose}; disulfide 2-12 (inferred); reading uncertain; also: printed as DCNWHLGELVWCT-(βA)(βA)) was 0

The substance 07A: cellulose-bound 13-mer variant DCAWHLAELVWCT-(βA)(βA) (DCAWHLAELVWCT-{βAla-βAla-cellulose}; disulfide 2-12 (inferred); not fully specified (N-terminus); printed as DCAWHLAELVWCT-(βA)(βA); reading uncertain) , when measured on human IgG-Fc, yielded Result for incubation with human IgG-Fc (immunoglobulin binding detection) of 0

Case 11V: cellulose-bound 13-mer variant DCAWHLGELVVCT-(βA)(βA) , human IgG-Fc, Result for incubation with human IgG-Fc (immunoglobulin binding detection) recorded as 0

----------
tested on: human IgG-Fc; assay: Cellulose-immobilized 13-mer peptide variants incubated with human IgG-Fc, anti-human IgG-AP detection; type: binding; set-up: key: No binding of immunoglobulin for the defined peptide variant, detection negative: 0; Binding of immunoglobulin for the defined peptide variant, detection positive: +; conditions: IgG-Fc 1 μg/ml in blocking buffer, 3 h room temperature
Bridge positions count the residues as written; N and C are the ends. Ends that are not written are not given here. cellulose = not defined here; βAla = NCCC(=O)O
valueKind: Result for incubation with human IgG-Fc (immunoglobulin binding detection)

06S: cellulose-bound 13-mer variant DCAWHSGELVWCT-(βA)(βA) (DCAWHSGELVWCT-{βAla-βAla-cellulose}; disulfide 2-12 (inferred); not fully specified (N-terminus); printed as DCAWHSGELVWCT-(βA)(βA); reading uncertain)	+
11K: cellulose-bound 13-mer variant DCAWHLGELVKCT-(βA)(βA)	+
01Q: cellulose-bound 13-mer variant QCAWHLGELVWCT-(βA)(βA) (QCAWHLGELVWCT-{βAla-βAla-cellulose}; disulfide 2-12 (inferred); reading uncertain; also: printed as QCAWHLGELVWCT-(βA)(βA))	+

----------
tested on: human IgG-Fc; test: Cellulose-immobilized 13-mer peptide variants incubated with human IgG-Fc, anti-human IgG-AP detection; assay type: binding; design: key: No binding of immunoglobulin for the defined peptide variant, detection negative: 0; Binding of immunoglobulin for the defined peptide variant, detection positive: +; conditions: IgG-Fc 1 μg/ml in blocking buffer, 3 h room temperature
Bridge positions count the residues as written; N and C are the ends. Ends that are not written are not given here. cellulose = not defined here; βAla = NCCC(=O)O
valueKind: Result for incubation with human IgG-Fc (immunoglobulin binding detection)

03S: cellulose-bound 13-mer variant DCSWHLGELVWCT-(βA)(βA) (DCSWHLGELVWCT-{βAla-βAla-cellulose}; disulfide 2-12 (inferred); reading uncertain; also: printed as DCSWHLGELVWCT-(βA)(βA))	+
09K: cellulose-bound 13-mer variant DCAWHLGEKVWCT-(βA)(βA) (DCAWHLGEKVWCT-{βAla-βAla-cellulose}; disulfide 2-12 (inferred); reading uncertain; also: printed as DCAWHLGEKVWCT-(βA)(βA))	+
11H: cellulose-bound 13-mer variant DCAWHLGELVHCT-(βA)(βA)	+
